Source of measurements: BigSolDB 2.1

- MEASUREMENT PARAMETERS: in toluene, 303.15 K
OBSERVED PROPERTY: solubility (mole fraction)

Value of measured solubility (mole fraction) for the entry COc1ccccc1N1CCN(CC(O)COc2cccc3ccccc23)CC1 (stereo unspecified) : 0.0129

---

- MEASUREMENT PARAMETERS: in toluene, 308.15 K
OBSERVED PROPERTY: solubility (mole fraction)
Just the number, please, no unit attached.

Note to self: solubility (mole fraction) recorded for COc1ccccc1N1CCN(CC(O)COc2cccc3ccccc23)CC1 (stereo unspecified) was 0.0149

---

- MEASUREMENT PARAMETERS: in acetone, 283.15 K
OBSERVED PROPERTY: solubility (mole fraction)
Answer as a number with no unit attached.

solubility (mole fraction) measured on COc1ccccc1N1CCN(CC(O)COc2cccc3ccccc23)CC1 (stereo unspecified) = 0.00481

---

- MEASUREMENT PARAMETERS: in acetonitrile, 273.15 K
OBSERVED PROPERTY: solubility (mole fraction)
Enter a number only.

Please fill in: solubility (mole fraction) reported for COc1ccccc1N1CCN(CC(O)COc2cccc3ccccc23)CC1 (stereo unspecified) = 0.00113

---

- MEASUREMENT PARAMETERS: in ethanol, 303.15 K
OBSERVED PROPERTY: solubility (mole fraction)
No unit in the answer, only the number.

Notebook: COc1ccccc1N1CCN(CC(O)COc2cccc3ccccc23)CC1 (stereo unspecified) , solubility (mole fraction) read as 0.00198

---

- MEASUREMENT PARAMETERS: in ethanol, 288.15 K
OBSERVED PROPERTY: solubility (mole fraction)
Give your answer as a number; write no unit.

The molecule listed as COc1ccccc1N1CCN(CC(O)COc2cccc3ccccc23)CC1 (stereo unspecified) has a reported solubility (mole fraction) of 0.00131

---

- MEASUREMENT PARAMETERS: in acetonitrile, 298.15 K
OBSERVED PROPERTY: solubility (mole fraction)
Enter the number alone.

The reported solubility (mole fraction) of the compound COc1ccccc1N1CCN(CC(O)COc2cccc3ccccc23)CC1 (stereo unspecified) was 0.00244

---

- MEASUREMENT PARAMETERS: in ethanol, 273.15 K
OBSERVED PROPERTY: solubility (mole fraction)
Reply: number alone, nothing else.

Lab note: COc1ccccc1N1CCN(CC(O)COc2cccc3ccccc23)CC1 (stereo unspecified) gave solubility (mole fraction) of 0.000817

---

- MEASUREMENT PARAMETERS: in acetone, 273.15 K
OBSERVED PROPERTY: solubility (mole fraction)
Keep it simple and answer with nothing but the number.

# compound COc1ccccc1N1CCN(CC(O)COc2cccc3ccccc23)CC1 (stereo unspecified) ; its solubility (mole fraction) = 0.00318

---

- MEASUREMENT PARAMETERS: in ethanol, 283.15 K
OBSERVED PROPERTY: solubility (mole fraction)
Give your answer as a number; write no unit.

Lab book: solubility (mole fraction) of COc1ccccc1N1CCN(CC(O)COc2cccc3ccccc23)CC1 (stereo unspecified) noted as 0.00112

---

- MEASUREMENT PARAMETERS: in acetonitrile, 293.15 K
OBSERVED PROPERTY: solubility (mole fraction)
Please give the numeric answer without any surrounding text.

// COc1ccccc1N1CCN(CC(O)COc2cccc3ccccc23)CC1 (stereo unspecified) : solubility (mole fraction) value = 0.00208
